Each recorded value in this set is attributed to patent US20100324130A1.

# TARGET UNDER TEST: PBR protein harvested from MA-10 cells (Mus musculus)
# Construct: PBR protein was harvested from MA-10 cells and stocked in PBS at 10 mg/mL; endogenous in cells
# TEST PROTOCOL: Competitive binding study against [3H]PK11195 on PBR protein
# MEASUREMENT CONDITIONS: amino group capped by acetyl group; [3H]PK11195 radioligand; 4° C., 90 minutes
# Protocol: More specifically, conjugable form of DAA1106, with 3-9 carbon spacers, has been synthesized, characterized, and used in a competitive binding assay. The amino group was capped by acetyl group to reduce non-specific binding (Scheme 2). PBR protein was harvested from MA-10 cells and stocked in PBS at 10 mg/mL. The stock solution was diluted to 30 μg/100 μL for the binding study. […] The filters were then washed 5 times with PBS, put in scintillation vials, vortexed in scintillation fluid and counted. […]
PARAMETER MEASURED: Ki (nM)
Write the value in nM as a bare number.

Could you tell me which Ki is on file for `COc1ccc(NCCCCCCCCNC(C)=O)c(CN(C(C)=O)c2cc(F)ccc2Oc2ccccc2)c1` ?
43

Could you tell me which Ki is on file for `COc1ccc(NCCCNC(C)=O)c(CN(C(C)=O)c2cc(F)ccc2Oc2ccccc2)c1` ?
68

Could you tell me which Ki is on file for `COc1ccc(NCCCCCCCNC(C)=O)c(CN(C(C)=O)c2cc(F)ccc2Oc2ccccc2)c1` ?
71

Could you tell me which Ki is on file for `COc1ccc(NCCCCCCCCCNC(C)=O)c(CN(C(C)=O)c2cc(F)ccc2Oc2ccccc2)c1` ?
51

Could you tell me which Ki is on file for `COc1ccc(NCCCCCNC(C)=O)c(CN(C(C)=O)c2cc(F)ccc2Oc2ccccc2)c1` ?
149

Could you tell me which Ki is on file for `COc1ccc(NCCCCCCNC(C)=O)c(CN(C(C)=O)c2cc(F)ccc2Oc2ccccc2)c1` ?
52

Could you tell me which Ki is on file for `COc1ccc(NCCCCNC(C)=O)c(CN(C(C)=O)c2cc(F)ccc2Oc2ccccc2)c1` ?
141
